Source of measurements: patent US20200079833A1

- tested_on: GLP-1 receptor (GLP-1R), primary cAMP assay cell line (human, UniProt P43220 24-463)
- protocol_summary: cell-based or functional assay
Starred links: 1 amine or outer side, 2 acyl side, 3 side chain; linkers in the order of their positions; H or OH if unused. Non-standard residues stand in square brackets, D forms with d. Groups on a side chain read outwards from the residue. Primed or numbered codes have the meaning given here. No end group written: not given here. *: point of attachment. γGlu = O=C(O)[C@H](CCC(=O)[*:2])N[*:1]; αMeF = C[C@](N)(Cc1ccccc1)C(=O)O; αMeK = C[C@](N)(CCCCN)C(=O)O; Lauroyl = CCCCCCCCCCCC(=O)*; αMeS = C[C@](N)(CO)C(=O)O; PEG2′ = not defined here; Aib = CC(C)(N)C(=O)O
// reported cAMP Primary assay EC50, n1 per item
Report as a plain number; the unit nM is understood.

In the examples that follow, each entry is paired with its recorded cAMP Primary assay EC50, n1.
{"binder": "H[Aib]EGS[αMeF]TSDK([PEG2′-PEG2′-γGlu-Lauroyl])SSYLEK([PEG2′-PEG2′-γGlu-Lauroyl])EAA[αMeK]EFIK([PEG2′-PEG2′-γGlu-Lauroyl])FVVEGG-NH2 [SEQ ID NO: 439]", "cAMP Primary assay EC50, n1 [nM]": 0.0599}
{"binder": "H[Aib]EGS[αMeF]TSDV[αMeS]SK([PEG2′-PEG2′-γGlu-Lauroyl])LEK([PEG2′-PEG2′-γGlu-Lauroyl])EAA[αMeK]EFIAK([PEG2′-PEG2′-γGlu-Lauroyl])VVEGG-NH2 [SEQ ID NO: 463]", "cAMP Primary assay EC50, n1 [nM]": 0.0695}
{"binder": "H[Aib]EGS[αMeF]TSDK([PEG2′-PEG2′-γGlu-Lauroyl])SSYLEGEAA[αMeK]K([PEG2′-PEG2′-γGlu-Lauroyl])FIAK([PEG2′-PEG2′-γGlu-Lauroyl])VVEGG-NH2 [SEQ ID NO: 458]", "cAMP Primary assay EC50, n1 [nM]": 0.0363}
{"binder": "H[Aib]EGS[αMeF]TSDV[αMeS]SYK([PEG2′-PEG2′-γGlu-Lauroyl])EGK([PEG2′-PEG2′-γGlu-Lauroyl])AA[αMeK]EFIAK([PEG2′-PEG2′-γGlu-Lauroyl])VVEGG-NH2 [SEQ ID NO: 468]", "cAMP Primary assay EC50, n1 [nM]": 0.0624}
{"binder": "H[Aib]EGS[αMeF]TSDVSK([PEG2′-PEG2′-γGlu-Lauroyl])YLEK([PEG2′-PEG2′-γGlu-Lauroyl])EAA[αMeK]EFIAFK([PEG2′-PEG2′-γGlu-Lauroyl])VEGG-NH2 [SEQ ID NO: 475]", "cAMP Primary assay EC50, n1 [nM]": 0.228}

Field: next binder
Which measured cAMP Primary assay EC50, n1 value corresponds to H[Aib]EGS[αMeF]TSDV[αMeS]SK([PEG2′-PEG2′-γGlu-Lauroyl])LEK([PEG2′-PEG2′-γGlu-Lauroyl])EAA[αMeK]EFIAFK([PEG2′-PEG2′-γGlu-Lauroyl])VEGG-NH2 [SEQ ID NO: 479] ? 0.132
